System Name: MshE (Vibrio cholerae, UniProt Q9KUV7)
Sequence (Q9KUV7 1-575): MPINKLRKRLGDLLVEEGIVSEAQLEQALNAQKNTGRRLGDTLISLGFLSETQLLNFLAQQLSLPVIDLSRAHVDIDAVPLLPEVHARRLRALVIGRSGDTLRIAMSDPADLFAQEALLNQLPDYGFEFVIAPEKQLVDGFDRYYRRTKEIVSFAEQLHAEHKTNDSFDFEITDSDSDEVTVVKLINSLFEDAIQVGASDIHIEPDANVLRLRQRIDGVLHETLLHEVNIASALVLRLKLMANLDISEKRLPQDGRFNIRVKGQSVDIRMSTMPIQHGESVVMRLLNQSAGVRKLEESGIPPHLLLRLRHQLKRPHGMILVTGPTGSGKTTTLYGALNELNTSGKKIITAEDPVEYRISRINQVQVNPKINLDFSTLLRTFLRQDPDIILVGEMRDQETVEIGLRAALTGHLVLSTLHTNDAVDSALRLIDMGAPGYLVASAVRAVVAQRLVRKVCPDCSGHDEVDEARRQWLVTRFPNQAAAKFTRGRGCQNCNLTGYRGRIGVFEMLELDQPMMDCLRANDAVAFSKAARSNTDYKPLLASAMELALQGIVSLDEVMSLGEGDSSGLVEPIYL
Metric: pKd
Quick note: pKd values are minus log10 of concentrations in mol/L.

Provide measured pKd on MshE (Vibrio cholerae, UniProt Q9KUV7) for Nc1nc2c(ncn2[C@@H]2O[C@@H]3COP(=O)(O)O[C@H]4[C@@H](O)[C@H](n5cnc6c(=O)[nH]c(N)nc65)O[C@@H]4COP(=O)(O)O[C@H]3[C@H]2O)c(=O)[nH]1 [c-di-GMP] please.
5.06

###

System Name: VpsT (Vibrio cholerae)
Metric: Kd (µM)
The reply should be a number in µM, with the unit left off.

Provide measured Kd on VpsT (Vibrio cholerae) for Nc1nc2c(ncn2[C@@H]2O[C@@H]3COP(=O)(O)O[C@H]4[C@@H](O)[C@H](n5cnc6c(=O)[nH]c(N)nc65)O[C@@H]4COP(=O)(O)O[C@H]3[C@H]2O)c(=O)[nH]1 [c-di-GMP] please.
10.1
